// each record: one item and its IC50 for Glyceraldehyde-3-phosphate dehydrogenase (Homo sapiens, UniProt P04406)

See these solved cases before continuing.
compound_string=COc1ccc(Br)cc1S(=O)(=O)Nc1ccc2ncccc2c1 assay_result="> 100 µM (not active)"
compound_string=O=C1C(Cl)=C(N2CCN(CCO)CC2)C(=O)N1c1ccc(C(F)(F)F)cc1 assay_result="> 50 µM (inconclusive)"
compound_string=CCN(CC)C(=O)c1cc(-c2ccc(Cl)cc2Cl)n[nH]1 assay_result="> 10 µM (inconclusive)"

Consider the record given below.
Can you look up the measured IC50 of CC(C)c1cc(C(C)C)c(S(=O)(=O)Nc2cnc3ccccc3c2)c(C(C)C)c1 for me?
> 100 µM (not active)

###

- test summary: DRD fibroblast viability loss – cell-based, non-viral oncogenic, luminescence, dose response (AID 1934)
- Type: functional
- details: Homo sapiens
The source made the active and inactive calls.
metric: EC50

Illustrative cases are given below, each with its answer.
compound_string=COC(=O)[C@@H]1Cc2c([nH]c3ccccc23)C(C)(C)N1C(=O)CCl assay_result="2.65 µM (inconclusive)"
compound_string=Cc1cccc(-n2ncc(Cl)c(Cl)c2=O)c1 assay_result="5.17 µM (active)"
compound_string=O=C(COC(=O)c1ccccc1C(=O)c1ccc(Cl)c([N+](=O)[O-])c1)NC1CC1 assay_result="10.1 µM (inconclusive)"
compound_string=COc1ccc(Nc2nc(-c3sc(C)nc3C)cs2)c(OC)c1 assay_result="4.81 µM (active)"

Consider now this further compound.
Quick check: EC50 of O=C(Nc1ccccn1)c1cc2ccccc2o1 ?
11.2 µM (active)

###

- target system: Voltage-gated N-type calcium channel alpha-1B subunit/Amyloid beta A4 precursor protein-binding family A member 1 (Homo sapiens, UniProt Q00975+Q02410)
- Sequence (Q00975 whole entry): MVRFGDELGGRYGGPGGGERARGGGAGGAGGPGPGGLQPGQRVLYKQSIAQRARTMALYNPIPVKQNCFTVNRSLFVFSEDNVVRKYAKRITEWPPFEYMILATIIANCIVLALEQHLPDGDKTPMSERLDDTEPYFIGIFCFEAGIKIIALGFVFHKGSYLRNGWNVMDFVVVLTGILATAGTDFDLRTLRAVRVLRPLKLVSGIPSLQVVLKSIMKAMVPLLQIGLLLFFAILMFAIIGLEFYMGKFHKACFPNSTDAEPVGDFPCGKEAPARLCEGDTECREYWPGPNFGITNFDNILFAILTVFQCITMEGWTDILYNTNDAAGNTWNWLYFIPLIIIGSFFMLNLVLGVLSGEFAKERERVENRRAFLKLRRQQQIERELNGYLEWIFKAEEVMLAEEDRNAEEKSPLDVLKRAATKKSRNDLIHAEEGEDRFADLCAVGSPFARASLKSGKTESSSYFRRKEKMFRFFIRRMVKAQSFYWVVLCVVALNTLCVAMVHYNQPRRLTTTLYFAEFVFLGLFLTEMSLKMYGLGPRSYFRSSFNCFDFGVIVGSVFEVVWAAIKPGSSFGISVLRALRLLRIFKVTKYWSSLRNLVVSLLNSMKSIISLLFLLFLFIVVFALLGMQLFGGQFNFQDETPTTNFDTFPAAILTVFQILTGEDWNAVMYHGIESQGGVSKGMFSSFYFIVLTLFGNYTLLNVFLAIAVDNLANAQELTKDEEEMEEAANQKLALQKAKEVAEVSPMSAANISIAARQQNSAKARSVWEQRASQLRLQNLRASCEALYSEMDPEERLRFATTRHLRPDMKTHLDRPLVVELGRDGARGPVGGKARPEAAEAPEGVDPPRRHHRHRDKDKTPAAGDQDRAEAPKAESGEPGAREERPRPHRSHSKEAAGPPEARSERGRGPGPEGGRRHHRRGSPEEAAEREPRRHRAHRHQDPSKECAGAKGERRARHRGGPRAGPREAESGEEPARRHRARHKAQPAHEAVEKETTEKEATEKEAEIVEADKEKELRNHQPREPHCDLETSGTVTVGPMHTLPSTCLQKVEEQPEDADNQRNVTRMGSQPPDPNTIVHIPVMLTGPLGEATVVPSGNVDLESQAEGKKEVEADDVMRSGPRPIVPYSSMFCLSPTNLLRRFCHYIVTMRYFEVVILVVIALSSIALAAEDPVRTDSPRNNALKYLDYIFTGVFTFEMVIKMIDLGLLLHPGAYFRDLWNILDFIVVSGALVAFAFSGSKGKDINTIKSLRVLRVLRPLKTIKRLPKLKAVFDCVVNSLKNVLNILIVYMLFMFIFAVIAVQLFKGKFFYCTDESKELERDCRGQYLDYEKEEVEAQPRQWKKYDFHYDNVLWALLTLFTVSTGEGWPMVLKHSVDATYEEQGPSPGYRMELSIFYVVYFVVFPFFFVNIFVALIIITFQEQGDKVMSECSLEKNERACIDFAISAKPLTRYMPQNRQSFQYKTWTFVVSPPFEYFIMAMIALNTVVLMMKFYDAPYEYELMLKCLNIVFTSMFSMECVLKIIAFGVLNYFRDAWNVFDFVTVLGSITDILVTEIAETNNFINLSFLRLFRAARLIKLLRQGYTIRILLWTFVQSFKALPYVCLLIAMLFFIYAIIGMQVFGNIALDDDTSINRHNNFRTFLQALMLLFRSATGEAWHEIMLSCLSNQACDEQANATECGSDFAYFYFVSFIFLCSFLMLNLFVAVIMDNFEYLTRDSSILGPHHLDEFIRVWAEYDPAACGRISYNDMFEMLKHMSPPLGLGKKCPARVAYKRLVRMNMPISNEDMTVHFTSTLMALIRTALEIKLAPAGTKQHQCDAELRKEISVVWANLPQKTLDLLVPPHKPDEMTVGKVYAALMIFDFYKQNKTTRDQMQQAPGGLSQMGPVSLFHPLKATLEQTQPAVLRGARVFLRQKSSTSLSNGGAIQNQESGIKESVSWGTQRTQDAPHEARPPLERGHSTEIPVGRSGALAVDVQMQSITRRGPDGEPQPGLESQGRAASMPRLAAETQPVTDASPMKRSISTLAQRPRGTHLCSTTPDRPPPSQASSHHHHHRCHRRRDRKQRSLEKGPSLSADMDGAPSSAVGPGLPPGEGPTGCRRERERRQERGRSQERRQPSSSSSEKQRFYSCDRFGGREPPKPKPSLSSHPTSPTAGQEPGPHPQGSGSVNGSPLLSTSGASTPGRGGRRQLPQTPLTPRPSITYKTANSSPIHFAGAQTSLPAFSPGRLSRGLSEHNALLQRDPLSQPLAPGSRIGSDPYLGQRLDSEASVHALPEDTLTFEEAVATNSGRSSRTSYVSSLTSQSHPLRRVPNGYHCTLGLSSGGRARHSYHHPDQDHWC
- Sequence (Q02410 whole entry): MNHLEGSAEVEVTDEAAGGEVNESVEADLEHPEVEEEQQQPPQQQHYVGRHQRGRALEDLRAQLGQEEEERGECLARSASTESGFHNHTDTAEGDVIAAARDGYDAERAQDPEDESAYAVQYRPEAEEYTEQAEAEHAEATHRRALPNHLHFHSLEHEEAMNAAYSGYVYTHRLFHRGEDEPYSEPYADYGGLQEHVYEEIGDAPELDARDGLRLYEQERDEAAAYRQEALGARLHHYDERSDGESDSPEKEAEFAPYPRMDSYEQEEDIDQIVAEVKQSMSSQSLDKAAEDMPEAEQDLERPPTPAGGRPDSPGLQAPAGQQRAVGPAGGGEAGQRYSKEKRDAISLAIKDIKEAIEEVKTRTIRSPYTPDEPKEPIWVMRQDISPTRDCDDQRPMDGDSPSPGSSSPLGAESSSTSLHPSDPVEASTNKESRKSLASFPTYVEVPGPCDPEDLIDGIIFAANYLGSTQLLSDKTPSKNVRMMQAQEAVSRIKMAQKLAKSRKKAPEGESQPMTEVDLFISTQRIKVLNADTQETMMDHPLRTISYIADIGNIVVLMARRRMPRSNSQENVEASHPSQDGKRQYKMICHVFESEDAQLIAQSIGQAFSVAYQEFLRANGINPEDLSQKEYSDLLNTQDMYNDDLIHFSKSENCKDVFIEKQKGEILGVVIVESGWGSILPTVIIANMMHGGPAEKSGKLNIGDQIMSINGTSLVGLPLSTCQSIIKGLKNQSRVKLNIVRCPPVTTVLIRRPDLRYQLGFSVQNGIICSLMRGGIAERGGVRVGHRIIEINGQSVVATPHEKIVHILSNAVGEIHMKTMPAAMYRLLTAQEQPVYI
- Format: protein assay
The source made the active and inactive calls.
Pick from yes for active, no for inactive when you respond.

Here are 4 molecules together with their reported answers.
molecule="CCOc1ccc(N2CSC3=C(C#N)C(c4ccco4)CC(=O)N3C2)cc1 (stereo not given)" assigned_category=yes
molecule=COc1ccc(C(=O)Nc2cccc(/C=C(\CCC(=O)O)c3nc4ccccc4s3)c2)cc1 assigned_category=no
molecule="O=c1cc(CO)oc(C(Nc2cccc(C(F)(F)F)c2)c2ccccn2)c1O (stereo not given)" assigned_category=yes
molecule=O=C(NCc1ccco1)c1ccc(Cl)nc1 assigned_category=no

As a next step, examine the molecule that follows.
Look up the recorded call for CN1CCN(NS(=O)(=O)c2cccs2)CC1 in this test.
no

###

Measured IC50 values are reported for all entries that follow.
- target system: Methionyl-tRNA synthetase, putative (Trypanosoma brucei brucei);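 note: Read-out by fluorescence polarization, run as a confirmatory high-throughput counterscreen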;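 note: potency of MetRS inhibitors measured by reduced AMP formation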
- Sequence (Q38C91 whole entry): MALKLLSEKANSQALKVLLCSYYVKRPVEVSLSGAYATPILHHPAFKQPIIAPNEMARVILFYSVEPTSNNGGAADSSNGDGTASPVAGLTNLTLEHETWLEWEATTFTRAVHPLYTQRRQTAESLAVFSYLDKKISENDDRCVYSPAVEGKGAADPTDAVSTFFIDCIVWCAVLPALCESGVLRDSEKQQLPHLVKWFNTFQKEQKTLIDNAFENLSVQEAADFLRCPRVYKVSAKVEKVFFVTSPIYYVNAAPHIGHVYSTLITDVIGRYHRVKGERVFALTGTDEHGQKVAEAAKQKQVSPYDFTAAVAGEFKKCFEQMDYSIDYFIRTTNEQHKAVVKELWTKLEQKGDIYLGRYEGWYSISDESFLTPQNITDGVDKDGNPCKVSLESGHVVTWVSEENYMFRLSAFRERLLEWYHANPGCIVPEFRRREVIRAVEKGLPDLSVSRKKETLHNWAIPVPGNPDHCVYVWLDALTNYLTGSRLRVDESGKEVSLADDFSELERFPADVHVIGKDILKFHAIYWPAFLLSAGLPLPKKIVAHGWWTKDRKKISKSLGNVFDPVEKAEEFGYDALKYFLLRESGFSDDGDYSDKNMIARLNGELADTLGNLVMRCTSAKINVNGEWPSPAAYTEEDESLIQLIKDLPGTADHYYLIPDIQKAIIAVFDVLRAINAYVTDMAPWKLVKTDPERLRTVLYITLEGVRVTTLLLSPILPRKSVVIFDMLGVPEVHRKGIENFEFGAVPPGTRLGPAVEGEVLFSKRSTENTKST
- Assay type: functional, Trypanosoma brucei brucei strain 927/4 GUTat10.1
Calls of active or inactive are those of the source.

compound_string=Cc1ccc(NC(=O)CN2C(=O)CN=C(c3ccccc3)c3cc(Cl)ccc32)cc1 assay_result="6.78 µM (active)"
compound_string=Clc1cccc(N/N=C(\Cc2nc3ccccc3[nH]2)c2ccccc2)c1 assay_result="4.59 µM (active)"
compound_string=O=C(CSc1n[nH]c2c3ccccc3nc-2n1)Nc1ccc2c(c1)OCO2 assay_result="4.39 µM (active)"
compound_string=O=C(CSc1ccc(-c2nc3ccccc3[nH]2)cn1)Nc1ccc(S(=O)(=O)N2CCCC2)cc1 assay_result="8.73 µM (active)"

Then there is this compound:
Lab note: need IC50 for O=C1CCCN1CCCNc1ncnc2c1[nH]c1ccc(Cl)cc12 on Methionyl-tRNA synthetase, putative (Trypanosoma brucei brucei), anyone have it?
8.28 µM (active)

###

- target system: Eukaryotic translation initiation factor 4E (Mus musculus, UniProt P63073)
- Sequence (P63073 whole entry): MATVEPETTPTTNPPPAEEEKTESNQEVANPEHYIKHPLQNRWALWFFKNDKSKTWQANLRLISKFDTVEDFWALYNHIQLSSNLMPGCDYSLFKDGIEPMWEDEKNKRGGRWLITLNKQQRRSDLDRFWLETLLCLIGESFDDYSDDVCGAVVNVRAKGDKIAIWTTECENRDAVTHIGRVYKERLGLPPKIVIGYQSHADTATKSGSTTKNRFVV
- test summary: blockers of eIF4G binding by eIF4E – biochemical, TR-FRET, dose response (AID 855);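 note: potency for disrupting eIF4E binding to eIF4GI seen as loss of FRET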
- Format: functional
The source made the active and inactive calls.
metric: IC50

Study these solved cases before continuing.
molecule=CN1CCN(C2=C(Cl)C(=O)C(c3cnc(N4CCCCC4)s3)=C(Cl)C2=O)CC1 assay_result="19.2 µM (inactive)"
molecule="Cc1ccc(/C=C/C(O)=C2/C(=O)N(C)C3(C)CC2c2ccccc2O3)cc1 (stereo unspecified)" assay_result="> 64 µM (inactive)"
molecule=CSc1nsc(SCC(=O)N2CCc3ccccc32)n1 assay_result="> 64 µM (inactive)"
molecule=CCOC(=O)c1c(N)sc2c(O)c(Br)ccc12 assay_result="> 64 µM (inactive)"
molecule=Cc1cc(C)cc(NC(=O)c2ccccc2CC[N+](=O)[O-])c1 assay_result="> 64 µM (inactive)"

Given the molecule CCOC(=O)Cn1c(=O)oc2cc(S(=O)(=O)NCc3cccs3)ccc21 , what is its reported IC50?
> 64 µM (inactive)

###

Each entry below lists one item and its recorded EC50 value.
- target system: Luciferin 4-monooxygenase (Photinus pyralis, UniProt P08659)
- Sequence (P08659 whole entry): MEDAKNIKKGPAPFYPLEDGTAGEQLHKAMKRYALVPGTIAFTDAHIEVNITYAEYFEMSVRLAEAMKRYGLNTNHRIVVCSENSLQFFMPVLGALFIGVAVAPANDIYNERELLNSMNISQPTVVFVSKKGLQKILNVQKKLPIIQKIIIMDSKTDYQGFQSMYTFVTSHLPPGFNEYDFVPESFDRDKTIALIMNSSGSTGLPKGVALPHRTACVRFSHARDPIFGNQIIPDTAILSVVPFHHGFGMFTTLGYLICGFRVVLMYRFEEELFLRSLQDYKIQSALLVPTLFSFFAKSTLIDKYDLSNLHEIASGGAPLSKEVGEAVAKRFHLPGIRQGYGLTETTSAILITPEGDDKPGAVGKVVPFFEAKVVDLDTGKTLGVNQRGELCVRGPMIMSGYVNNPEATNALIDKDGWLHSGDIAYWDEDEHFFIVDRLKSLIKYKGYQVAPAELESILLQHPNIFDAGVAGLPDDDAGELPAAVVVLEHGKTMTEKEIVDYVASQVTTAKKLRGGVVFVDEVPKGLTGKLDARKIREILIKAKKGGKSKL
- test summary: inhibition of purified Photinus pyralis luciferase – biochemical, luminescence, dose response (AID 1891)
Where a name gives a salt, the structure may show the parent alone. Active and inactive are the calls of the source.

Known EC50 results, listed for orientation:
molecule=COc1cc2cc(CN(CCO)S(=O)(=O)c3ccccc3Cl)c(O)nc2cc1OC assay_result="> 112 µM (not active)"
molecule=Cn1cc(CN(CCO)Cc2cccs2)c(-c2cccc(Cl)c2)n1 assay_result="> 112 µM (not active)"
molecule=CCn1c(=O)cc(N2CCN(Cc3ccccc3)CC2)[nH]c1=O assay_result="> 112 µM (not active)"
molecule=COc1ccc(NC(=O)c2cc(S(=O)(=O)N3CCc4ccccc43)cn2C)cc1OC assay_result="> 112 µM (not active)"

Looking for the measured EC50 of O=C1CN2Cc3c(ccc(Cl)c3Cl)N=C2N1 [ANAGRELIDE HYDROCHLORIDE] , can you help?
> 112 µM (not active)

So what does the record say about EC50 for O=C(Nc1ccc(N2CCOCC2)cc1)c1nc2ccccc2s1 ?
16.4 µM (active)

For the molecule shown here, O=C(Nc1ccccn1)c1cc2ccccc2o1 , give the reported EC50.
3.03 µM (active)

What value of EC50 has been reported for the following molecule? Oc1nc2cc3c(cc2cc1CN(CCc1ccccc1)Cc1nnnn1C1CCCC1)OCCO3
> 112 µM (not active)

Entry Cc1nc(O)c(C#N)c(C)c1CSc1ncccn1 : reported EC50 = ?
> 112 µM (not active)

Returns the measured EC50 for the input molecule. Input: COc1ccc(N2CCN(CC(=O)c3ccc(O)cc3O)CC2)cc1
> 112 µM (not active)

Dear colleague, I am looking for the recorded EC50 of the following molecule: c1ccc(C(c2ccccc2)N2CCN(Cc3nnnn3C3CCCC3)CC2)cc1
> 112 µM (not active)

Fill in the blank: the reported EC50 of CCc1ccc(S(=O)(=O)NCCc2cn3ccsc3n2)s1 is ____.
> 112 µM (not active)

###

- target system: Protein RecA (Mycobacterium tuberculosis)
- test summary: Fluorescence Cell-Free Homogeneous Dose Retest to Identify Inhibitors of RecA-Intein Splicing Activity. [Related pubchem assays (depositor defined):AID2097, AID2223, AID489010, AID492950]
- Type: functional
The source made the active and inactive calls.
Measured EC50 by item

Past entries and their recorded results:
compound_string=CCOc1ccccc1Nc1nnc(Cc2ccccc2Cl)c(O)n1 assay_result="21000 nM (active)"
compound_string=O=C(O)c1ccc([N+](=O)[O-])c2c1C(=O)c1ccccc1C2=O assay_result="6780 nM (active)"
compound_string=CCCC(=O)OCCNc1cc(Sc2nccn2C)c2nonc2c1[N+](=O)[O-] assay_result="1270 nM (active)"
compound_string=Cc1n[nH]c2c1C1(CCOCC1)C(C#N)=C(N)O2 assay_result="2830 nM (active)"
compound_string=O=C(Cc1cc(O)n[nH]1)N/N=C/c1cccc2ccccc12 assay_result="694 nM (active)"

Write down the reported EC50 of COC(=O)c1nc(O)c2ccccc2c1O , test system: Protein RecA (Mycobacterium tuberculosis).
3570 nM (active)

Notebook: pull reported EC50 for Protein RecA (Mycobacterium tuberculosis), entry CCCCn1c(NS(=O)(=O)c2ccccc2)c(S(=O)(=O)c2ccc(C)cc2)c2nc3ccccc3nc21
80.1 nM (inconclusive)
